# Species on record: Rattus norvegicus
# test_summary: Open TG-GATES - Regimen: Daily Repeat
# Format: toxicity, organism-based, Sprague-Dawley
# Parameters: regimen Daily Repeat, gender Male, age 6 weeks
# setup_conditions: in vivo, po, 1000 mg/kg, […], tissue Blood, route gavage, dose level High, time 7 day
I'd appreciate it if you could supply Ret values for the items below.
# unit: % | format: bare number

[Q] Read the entry O=C(O)c1cccnc1 [NIACIN] and write its reported Ret.
[A] 6.7

[Q] Query Ret for O=C(N[C@H](CO)[C@H](O)c1ccc([N+](=O)[O-])cc1)C(Cl)Cl [CHLORAMPHENICOL]
[A] 4.9

[Q] Provide Ret value for the following compound: CCN1CCCC1CNC(=O)c1cc(S(N)(=O)=O)ccc1OC (centres undefined) [SULPIRIDE]
[A] 4.7

[Q] Return value of Ret for input CC(C)(S)[C@@H](N)C(=O)O [PENICILLAMINE] , no commentary.
[A] 4.6

---

# Organism: Rattus norvegicus
# test_summary: Open TG-GATES - Regimen: Single
# Assay type: toxicity, organism-based, Sprague-Dawley
# Parameters: regimen Single, gender Male, age 6 weeks
# setup_conditions: in vivo, po, 0 mg/kg, 24 h, tissue Blood, route gavage, dose level Control
readout_kind: APTT (s)
Return type: number; implicit unit s.

[Q] Give a short answer stating reported APTT for CC(C)C(=O)Nc1ccc([N+](=O)[O-])c(C(F)(F)F)c1 [FLUTAMIDE] .
[A] 17.7

[Q] Please look at this molecule and report its APTT: Nc1nc(N)c2nc(-c3ccccc3)c(N)nc2n1
[A] 17.1

[Q] Please supply the value of reported APTT for the item C#C[C@]1(O)CC[C@H]2[C@@H]3CCc4cc(O)ccc4[C@H]3CC[C@@]21C
[A] 16.4

[Q] Give the reported APTT for this molecule. O=C(N[C@H](CO)[C@H](O)c1ccc([N+](=O)[O-])cc1)C(Cl)Cl
[A] 16.1

[Q] Give the reported APTT for this molecule. CC(=O)Oc1cc(C(C)C)c(OCCN(C)C)cc1C
[A] 20.3

[Q] // fetch APTT given entry Oc1ncnc2[nH]ncc12
[A] 16.3

[Q] Identify the reported APTT for the following entry. CN1C(=O)OC(C)(C)C1=O
[A] 17.1

[Q] Indicate its recorded APTT; the molecule in question is C[C@](N)(Cc1ccc(O)c(O)c1)C(=O)O
[A] 17

[Q] For the molecule CC(C)(S)[C@@H](N)C(=O)O , report APTT.
[A] 16.2

[Q] Look up and state reported APTT for CC(=N)S [THIOACETAMIDE]
[A] 17.2

[Q] Consider the molecule CCc1oc2ccccc2c1C(=O)c1cc(I)c(O)c(I)c1 . State its measured APTT.
[A] 16.7

---

# Organism: Rattus norvegicus
# test_summary: Open TG-GATES - Regimen: Daily Repeat
# Format: toxicity, organism-based, Sprague-Dawley
# Set-up: regimen Daily Repeat, gender Male, age 6 weeks
# setup_conditions: in vivo, po, 0 mg/kg, […], tissue Plasma, route gavage, dose level Control, time 14 day
readout_kind: Cl (meq/L)
# number only, unit meq/L dropped from output

[Q] Fill in reported Cl for this entry: C[C@]12CCC(=O)C=C1CC[C@@H]1[C@@H]2CC[C@@]2(C)[C@H]1CC[C@]2(C)O [METHYLTESTOSTERONE]
[A] 105.8

[Q] Return value of Cl for input C[C@](N)(Cc1ccc(O)c(O)c1)C(=O)O [METHYLDOPA] , no commentary.
[A] 107

[Q] In one line, give reported Cl of the entry O=C(O)c1cccnc1 [NIACIN] .
[A] 104.2

[Q] Output measured Cl for this item: CCSCC[C@H](N)C(=O)O [ETHIONINE]
[A] 102.4

[Q] For the compound CCc1oc2ccccc2c1C(=O)c1cc(I)c(O)c(I)c1 [BENZIODARONE] , give its reported Cl.
[A] 104.4

[Q] Check the records and state Cl for CC(=N)S [THIOACETAMIDE]
[A] 103

[Q] Tell me measured Cl for Nc1nc(N)c2nc(-c3ccccc3)c(N)nc2n1 please.
[A] 105.6

[Q] Answer with the recorded Cl for the compound listed here: CCN1CCCC1CNC(=O)c1cc(S(N)(=O)=O)ccc1OC (centres undefined) [SULPIRIDE]
[A] 103.2

[Q] Please look at this compound and report its Cl: CN1C(=O)OC(C)(C)C1=O [TRIMETHADIONE]
[A] 107.2

[Q] Supply measured Cl of C#C[C@]1(O)CC[C@H]2[C@@H]3CCc4cc(O)ccc4[C@H]3CC[C@@]21C [ETHINYL ESTRADIOL] in your reply.
[A] 104.8

[Q] Give the reported value of Cl for this record: CC(C)C(=O)Nc1ccc([N+](=O)[O-])c(C(F)(F)F)c1 [FLUTAMIDE]
[A] 103.2

[Q] # return recorded Cl for entry CC(=O)Oc1cc(C(C)C)c(OCCN(C)C)cc1C [MOXISYLYTE]
[A] 106.2

[Q] Entry O=C(N[C@H](CO)[C@H](O)c1ccc([N+](=O)[O-])cc1)C(Cl)Cl [CHLORAMPHENICOL] needs its Cl filled in; supply it.
[A] 107.2

[Q] Indicate its recorded Cl; the compound in question is CC(C)(S)[C@@H](N)C(=O)O [PENICILLAMINE]
[A] 105.2
